In this section, each of the molecules is paired with its reported Rotarod Assay (% impaired).
- Tested on: minimal muscular or neurological impairment (rotarod)
- measurement notes: Mouse rotarod assay
- Type: in vivo, mice
- reported conditions: 0.25 hr
Numeric only. Scale: %

Data request: Item: "N[C@@H]1CCCC[C@@H]1C(=O)N1CCC(CC(=O)Nc2cc(C(F)(F)F)cc(C(F)(F)F)c2)CC1" Test system: minimal muscular or neurological impairment (rotarod) Read-out: Rotarod Assay (% impaired) Value: ?
Data returned: 100

Data request: Item: "NC1(CC(=O)N2CCC(CC(=O)Nc3cc(C(F)(F)F)cc(C(F)(F)F)c3)CC2)CCCCC1" Test system: minimal muscular or neurological impairment (rotarod) Read-out: Rotarod Assay (% impaired) Value: ?
Data returned: 0

Data request: Item: O=C(CC1CCN(C(=O)C2CNCCO2)CC1)Nc1cc(C(F)(F)F)cc(C(F)(F)F)c1 (stereo not drawn) Test system: minimal muscular or neurological impairment (rotarod) Read-out: Rotarod Assay (% impaired) Value: ?
Data returned: 25

Data request: Item: "NC1(CC(=O)N2CCC(CNC(=O)Nc3cc(C(F)(F)F)cc(C(F)(F)F)c3)CC2)CCCCC1" Test system: minimal muscular or neurological impairment (rotarod) Read-out: Rotarod Assay (% impaired) Value: ?
Data returned: 0

Data request: Item: "O=C(Nc1cc(C(F)(F)F)cc(C(F)(F)F)c1)OCC1CCN(C(=O)[C@H]2CCCCN2)CC1" Test system: minimal muscular or neurological impairment (rotarod) Read-out: Rotarod Assay (% impaired) Value: ?
Data returned: 0

Data request: Item: N[C@@H]1CCCC[C@H]1C(=O)N1CCC(CC(=O)Nc2cc(C(F)(F)F)cc(C(F)(F)F)c2)CC1 (racemic) Test system: minimal muscular or neurological impairment (rotarod) Read-out: Rotarod Assay (% impaired) Value: ?
Data returned: 0

----------
- Test system: minimal muscular or neurological impairment (rotarod)
- measurement notes: Mouse rotarod assay
- Assay type: in vivo, mice
- reported conditions: 2 hr
In this section, each of the molecules is paired with its reported Rotarod Assay (% impaired).
Numeric only. Scale: %

Examples from the recorded data:
O=C(CC1CCN(C(=O)C2CNCCO2)CC1)Nc1cc(C(F)(F)F)cc(C(F)(F)F)c1 (stereo not drawn) = 75
NC1(CC(=O)N2CCC(CC(=O)Nc3cc(C(F)(F)F)cc(C(F)(F)F)c3)CC2)CCCCC1 = 100
N[C@@H]1CCCC[C@@H]1C(=O)N1CCC(CC(=O)Nc2cc(C(F)(F)F)cc(C(F)(F)F)c2)CC1 = 100
N[C@@H]1CCCC[C@H]1C(=O)N1CCC(CC(=O)Nc2cc(C(F)(F)F)cc(C(F)(F)F)c2)CC1 (racemic) = 75
NC1(CC(=O)N2CCC(CNC(=O)Nc3cc(C(F)(F)F)cc(C(F)(F)F)c3)CC2)CCCCC1 = 100

In the following, a different molecule is considered.
Data request: For "O=C(Nc1cc(C(F)(F)F)cc(C(F)(F)F)c1)OCC1CCN(C(=O)[C@H]2CCCCN2)CC1" , what is its reported Rotarod Assay (% impaired)?
Data returned: 100

----------
- experimental system: α1H (CaV 3.2) (Homo sapiens, UniProt O95180)
- Construct: expressed in transfected cells; host or cells: HEK 293
- Sequence (O95180 whole entry): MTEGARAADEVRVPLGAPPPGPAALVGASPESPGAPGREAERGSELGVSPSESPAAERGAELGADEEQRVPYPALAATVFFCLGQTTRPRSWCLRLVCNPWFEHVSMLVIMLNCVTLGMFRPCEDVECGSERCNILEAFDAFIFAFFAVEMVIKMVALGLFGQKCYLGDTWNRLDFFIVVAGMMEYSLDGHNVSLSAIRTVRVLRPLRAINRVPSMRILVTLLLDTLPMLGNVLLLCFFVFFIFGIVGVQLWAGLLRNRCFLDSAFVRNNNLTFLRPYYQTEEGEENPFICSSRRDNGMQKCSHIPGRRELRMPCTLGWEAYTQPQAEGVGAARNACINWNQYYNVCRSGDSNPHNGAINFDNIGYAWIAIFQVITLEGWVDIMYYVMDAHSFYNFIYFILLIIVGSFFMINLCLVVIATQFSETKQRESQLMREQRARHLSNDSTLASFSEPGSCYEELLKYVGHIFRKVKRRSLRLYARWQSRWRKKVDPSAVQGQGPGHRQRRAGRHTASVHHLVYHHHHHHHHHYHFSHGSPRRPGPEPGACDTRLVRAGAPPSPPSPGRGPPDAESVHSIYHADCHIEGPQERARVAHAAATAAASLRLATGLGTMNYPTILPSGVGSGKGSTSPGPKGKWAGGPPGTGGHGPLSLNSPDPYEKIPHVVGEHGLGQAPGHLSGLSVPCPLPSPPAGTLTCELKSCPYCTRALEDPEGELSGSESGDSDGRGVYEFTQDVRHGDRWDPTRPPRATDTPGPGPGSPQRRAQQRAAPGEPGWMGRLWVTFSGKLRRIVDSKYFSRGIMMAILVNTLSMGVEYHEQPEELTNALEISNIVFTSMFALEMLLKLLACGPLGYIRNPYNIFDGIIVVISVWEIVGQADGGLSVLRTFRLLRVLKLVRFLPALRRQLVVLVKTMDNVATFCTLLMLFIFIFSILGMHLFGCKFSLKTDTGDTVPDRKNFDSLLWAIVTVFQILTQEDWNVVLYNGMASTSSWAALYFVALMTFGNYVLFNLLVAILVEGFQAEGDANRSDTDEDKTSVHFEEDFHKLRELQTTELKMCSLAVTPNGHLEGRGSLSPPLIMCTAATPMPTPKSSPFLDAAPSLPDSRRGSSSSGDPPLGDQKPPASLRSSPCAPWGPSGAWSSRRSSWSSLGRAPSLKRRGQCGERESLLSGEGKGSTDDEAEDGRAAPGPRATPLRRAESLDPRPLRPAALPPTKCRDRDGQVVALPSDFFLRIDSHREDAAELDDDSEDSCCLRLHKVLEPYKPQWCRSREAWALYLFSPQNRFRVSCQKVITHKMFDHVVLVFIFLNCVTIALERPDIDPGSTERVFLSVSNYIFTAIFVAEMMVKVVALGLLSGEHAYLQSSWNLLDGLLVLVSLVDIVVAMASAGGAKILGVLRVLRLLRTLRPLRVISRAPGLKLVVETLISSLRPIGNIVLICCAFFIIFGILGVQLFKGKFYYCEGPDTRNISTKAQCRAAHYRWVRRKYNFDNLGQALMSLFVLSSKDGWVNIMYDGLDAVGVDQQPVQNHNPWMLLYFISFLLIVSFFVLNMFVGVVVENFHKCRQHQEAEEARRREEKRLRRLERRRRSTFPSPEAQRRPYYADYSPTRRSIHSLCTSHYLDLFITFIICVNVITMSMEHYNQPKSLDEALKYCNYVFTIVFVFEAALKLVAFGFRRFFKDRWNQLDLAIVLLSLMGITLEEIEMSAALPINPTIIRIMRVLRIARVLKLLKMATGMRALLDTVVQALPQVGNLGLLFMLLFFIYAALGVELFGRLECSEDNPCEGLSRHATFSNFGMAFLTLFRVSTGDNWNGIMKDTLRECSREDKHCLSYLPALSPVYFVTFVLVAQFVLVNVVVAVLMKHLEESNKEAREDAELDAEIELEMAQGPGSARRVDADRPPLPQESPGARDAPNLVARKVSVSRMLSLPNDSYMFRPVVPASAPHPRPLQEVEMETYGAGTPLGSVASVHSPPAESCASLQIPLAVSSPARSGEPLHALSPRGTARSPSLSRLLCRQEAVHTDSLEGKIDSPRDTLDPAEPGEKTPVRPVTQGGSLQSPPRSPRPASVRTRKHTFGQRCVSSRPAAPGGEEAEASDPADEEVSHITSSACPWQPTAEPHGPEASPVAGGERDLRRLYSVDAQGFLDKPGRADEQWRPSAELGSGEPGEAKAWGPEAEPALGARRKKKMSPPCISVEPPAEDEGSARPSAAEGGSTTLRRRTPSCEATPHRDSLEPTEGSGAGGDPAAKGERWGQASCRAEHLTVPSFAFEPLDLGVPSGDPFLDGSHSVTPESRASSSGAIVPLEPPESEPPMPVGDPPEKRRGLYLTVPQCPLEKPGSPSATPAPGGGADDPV
- measurement notes: T-type calcium channel block, whole cell patch clamp
- Type: cell-based
- reported conditions: HEK cells, mainly non-inactivated protocol; values above 10,000 nM represented as 10000
parameter measured: pIC50
# pIC50: negative log10 of molar concentration; output just the value

N[C@@H]1CCCC[C@@H]1C(=O)N1CCC(CC(=O)Nc2cc(C(F)(F)F)cc(C(F)(F)F)c2)C1 (stereo partly shown) = 6.34
NC1(CC(=O)N2CCC(NC(=O)Nc3cc(C(F)(F)F)cc(C(F)(F)F)c3)CC2)CCCCC1 = 6.44
N[C@@H]1CCCC[C@H]1C(=O)N1CCC(CC(=O)Nc2cc(C(F)(F)F)cc(C(F)(F)F)c2)CC1 (racemic) [Compound 3] = 7.22
NC1(CC(=O)N2CCC(CC(=O)Nc3cc(C(F)(F)F)cc(C(F)(F)F)c3)CC2)CCCCC1 = 6.96
N[C@@H]1CCCC[C@H]1C(=O)N1CC(CC(=O)Nc2cc(C(F)(F)F)cc(C(F)(F)F)c2)C1 (racemic) = 6.08
CN1CCCC(C(=O)N2CC(CC(=O)Nc3cc(C(F)(F)F)cc(C(F)(F)F)c3)C2)C1 (stereo not shown) = 5.09

Data request: Item: CC(C)(N)CC(=O)N1CCC(CC(=O)Nc2cc(C(F)(F)F)cc(C(F)(F)F)c2)C1 (stereo not shown) Test system: α1H (CaV 3.2) (Homo sapiens, UniProt O95180) Read-out: pIC50 Value: ?
Data returned: 5.68

Data request: Item: N[C@H]1CCCC[C@H]1C(=O)N1CCC(CNC(=O)c2cc(C(F)(F)F)cc(C(F)(F)F)c2)CC1 (racemic) Test system: α1H (CaV 3.2) (Homo sapiens, UniProt O95180) Read-out: pIC50 Value: ?
Data returned: 5.71

Data request: Item: N[C@@H]1CCCC[C@@H]1C(=O)N1CCC(O)(CC(=O)Nc2cc(C(F)(F)F)cc(C(F)(F)F)c2)CC1 (racemic) Test system: α1H (CaV 3.2) (Homo sapiens, UniProt O95180) Read-out: pIC50 Value: ?
Data returned: 6.09

Data request: Item: "NC1(CC(=O)N2CCC(O)(CC(=O)Nc3cc(C(F)(F)F)cc(C(F)(F)F)c3)CC2)CCCCC1" Test system: α1H (CaV 3.2) (Homo sapiens, UniProt O95180) Read-out: pIC50 Value: ?
Data returned: 7.10

----------
In this section, each of the compounds is paired with its reported IC50.
- experimental system: α1H (CaV 3.2) (Homo sapiens, UniProt O95180)
- measurement notes: T-type calcium channel block, whole cell patch clamp
- reported conditions: HEK cells, mainly non-inactivated protocol; values above 10,000 nM represented as 10000
- Protocol: T-type calcium channel blocking activity was assayed in human embryonic kidney cells, HEK 293 (Invitrogen), stably transfected with the T-type calcium channel subunits. […] Standard patch-clamp techniques were employed to identify blockers of T-type currents. […] Data were analyzed using Clampfit (Axon Instruments) and SigmaPlot 4.0 (Jandel Scientific). […] Test compounds were dissolved in external solution, 0.1-0.01% DMSO. […] In Table 4, empty cells indicate that inhibition by the compound was not detected.

N[C@H]1CCCC[C@@H]1C(=O)N1CCC(CC(=O)Nc2ccc(F)cc2)CC1 (racemic) [Compound 11] = > 10 µM
N[C@H]1CCCC[C@@H]1C(=O)N1CCC(CC(=O)Nc2cc(F)c(F)cc2F)CC1 (racemic) [Compound 14] = > 10 µM

In the following, a different compound is considered.
Data request: Item: CC(C)(N)CC(=O)N1CC(CC(=O)Nc2cc(C(F)(F)F)cc(C(F)(F)F)c2)C1 [Compound 43] Test system: α1H (CaV 3.2) (Homo sapiens, UniProt O95180) Read-out: IC50 Value: ?
Data returned: > 10 µM
